# Test system: HeLa
# protocol_description: Cytotoxicity against human HeLa cells after 24 hrs by MTT assay
# Assay type: functional, cell-based
# study_conditions: hela
metric: pIC50
Answers are plain numbers, as −log10 of the molar value.

>>> quantitative_result("COc1ccc(/C=C\\c2cc(OC)c(OC)c(OC)c2)cc1NC(=O)[C@H](CCSC)NC(=O)OC1CC(C)(C)N([O])C(C)(C)C1")
5.94
>>> quantitative_result("COc1ccc(/C=C\\c2cc(OC)c(OC)c(OC)c2)cc1NC(=O)C1CC(C)(C)N([O])C(C)(C)C1")
4.23
>>> quantitative_result("COc1ccc(/C=C\\c2cc(OC)c(OC)c(OC)c2)cc1NC(=O)[C@H](Cc1c[nH]c2ccccc12)NC(=O)OC1CC(C)(C)N([O])C(C)(C)C1")
5.68
>>> quantitative_result("COc1ccc(/C=C\\c2cc(OC)c(OC)c(OC)c2)cc1NC(=O)C1=CC(C)(C)N([O])C(C)(C)C1")
5.07

Ask: Which value of pIC50 has been reported for COc1ccc(/C=C\c2cc(OC)c(OC)c(OC)c2)cc1NC(=O)[C@H](C)NC(=O)OC1CC(C)(C)N([O])C(C)(C)C1 in the records?
Result: 6.41

====

# System: K562
# protocol_description: Cytotoxicity against human K562 cells after 24 hrs by MTT assay
# Format: functional, cell-based
# study_conditions: k562
metric: pIC50
Numbers only, as −log10 of the molar value.

>>> quantitative_result("COc1ccc(/C=C\\c2cc(OC)c(OC)c(OC)c2)cc1NC(=O)[C@H](Cc1c[nH]c2ccccc12)NC(=O)OC1CC(C)(C)N([O])C(C)(C)C1")
6.25

# batch size: 3; output pIC50 per entry
1. COc1ccc(/C=C\c2cc(OC)c(OC)c(OC)c2)cc1NC(=O)C1CC(C)(C)N([O])C1(C)C (configuration not stated)
2. COc1ccc(/C=C\c2cc(OC)c(OC)c(OC)c2)cc1NC(=O)[C@@H](NC(=O)OC1CC(C)(C)N([O])C(C)(C)C1)C(C)C
3. COc1ccc(/C=C\c2cc(OC)c(OC)c(OC)c2)cc1NC(=O)C1=CC(C)(C)N([O])C(C)(C)C1

Result:
[4.98, 4.92, 4.81]

# batch size: 2; output pIC50 per entry
1. COc1ccc(/C=C\c2cc(OC)c(OC)c(OC)c2)cc1NC(=O)[C@H](Cc1ccccc1)NC(=O)OC1CC(C)(C)N([O])C(C)(C)C1
2. COc1ccc(/C=C\c2cc(OC)c(OC)c(OC)c2)cc1NC(=O)[C@H](CCSC)NC(=O)OC1CC(C)(C)N([O])C(C)(C)C1

Result:
[5.24, 5.38]

====

# protocol_description: Cytotoxicity against human […] cells after 24 hrs by MTT assay
# Type: functional, cell-based
Could you mark each record Fulfilled if its IC50 falls strictly under 5 µM, and Not fulfilled if it equals or exceeds it?

Look over these answered cases.
>>> discrete_label("COc1ccc(/C=C\\c2cc(OC)c(OC)c(OC)c2)cc1NC(=O)[C@H](Cc1c[nH]c2ccccc12)NC(=O)OC1CC(C)(C)N([O])C(C)(C)C1")
"Fulfilled"
>>> discrete_label("COc1ccc(/C=C\\c2cc(OC)c(OC)c(OC)c2)cc1NC(=O)[C@@H]1CCCN1C(=O)OC1CC(C)(C)N([O])C(C)(C)C1")
"Fulfilled"
>>> discrete_label("COc1ccc(/C=C\\c2cc(OC)c(OC)c(OC)c2)cc1NC(=O)[C@H](Cc1ccccc1)NC(=O)OC1CC(C)(C)N([O])C(C)(C)C1")
"Not fulfilled"

Ask: Please determine if COc1ccc(/C=C\c2cc(OC)c(OC)c(OC)c2)cc1NC(=O)[C@H](C)NC(=O)OC1CC(C)(C)N([O])C(C)(C)C1 is below 5 µM in terms of IC50.
Result: Fulfilled

====

Give measured IC50 for each item. Keep answers brief.
# Tested on: HeLa
# protocol_description: Cytotoxicity against human HeLa cells after 24 hrs by MTT assay
# Format: functional, cell-based
# study_conditions: hela
Answers are plain numbers, in µM.

Observe how each entry below is paired with its result.
>>> quantitative_result("COc1ccc(/C=C\\c2cc(OC)c(OC)c(OC)c2)cc1NC(=O)C1=CC(C)(C)N([O])C1(C)C")
42.3
>>> quantitative_result("COc1ccc(/C=C\\c2cc(OC)c(OC)c(OC)c2)cc1NC(=O)CNC(=O)OC1CC(C)(C)N([O])C(C)(C)C1")
0.41
>>> quantitative_result("COc1ccc(/C=C\\c2cc(OC)c(OC)c(OC)c2)cc1NC(=O)[C@H](Cc1ccccc1)NC(=O)OC1CC(C)(C)N([O])C(C)(C)C1")
8.37
>>> quantitative_result("COc1ccc(/C=C\\c2cc(OC)c(OC)c(OC)c2)cc1NC(=O)C1CC(C)(C)N([O])C1(C)C (configuration not stated)")
7.6
>>> quantitative_result("COc1ccc(/C=C\\c2cc(OC)c(OC)c(OC)c2)cc1NC(=O)[C@@H](NC(=O)OC1CC(C)(C)N([O])C(C)(C)C1)C(C)C")
0.15

# batch size: 2; output IC50 per entry
1. CC[C@H](C)[C@H](NC(=O)OC1CC(C)(C)N([O])C(C)(C)C1)C(=O)Nc1cc(/C=C\c2cc(OC)c(OC)c(OC)c2)ccc1OC
2. COc1ccc(/C=C\c2cc(OC)c(OC)c(OC)c2)cc1NC(=O)[C@@H]1CCCN1C(=O)OC1CC(C)(C)N([O])C(C)(C)C1

Result:
1. 2.33
2. 3.39

====

# Tested on: K562
# protocol_description: Cytotoxicity against human K562 cells after 24 hrs by MTT assay
# Format: functional, cell-based
# study_conditions: Homo sapiens, K562, 24 h
metric: IC50 (nM)
Numbers only, in nM.

>>> quantitative_result("COc1cc([C@@H]2c3cc4c(cc3[C@@H](O[C@@H]3O[C@@H]5CO[C@@H](C)O[C@H]5[C@H](O)[C@H]3O)[C@H]3COC(=O)[C@H]23)OCO4)cc(OC)c1O [ETOPOSIDE]")
2850

Ask: Which value of IC50 has been reported for COc1ccc(/C=C\c2cc(OC)c(OC)c(OC)c2)cc1N in the records?
Result: 120

====

# Tested on: K562
# protocol_description: Cytotoxicity against human K562 cells after 24 hrs by MTT assay
# Type: functional, cell-based
# study_conditions: k562
Give measured IC50 for each item. Keep answers brief.
One number for each entry, in µM.

Observe how each entry below is paired with its result.
>>> quantitative_result("COc1ccc(/C=C\\c2cc(OC)c(OC)c(OC)c2)cc1NC(=O)C1CC(C)(C)N([O])C(C)(C)C1")
16.9
>>> quantitative_result("COc1ccc(/C=C\\c2cc(OC)c(OC)c(OC)c2)cc1NC(=O)[C@H](C)NC(=O)OC1CC(C)(C)N([O])C(C)(C)C1")
1.56
>>> quantitative_result("COc1ccc(/C=C\\c2cc(OC)c(OC)c(OC)c2)cc1NC(=O)CNC(=O)OC1CC(C)(C)N([O])C(C)(C)C1")
1.09
>>> quantitative_result("CC[C@H](C)[C@H](NC(=O)OC1CC(C)(C)N([O])C(C)(C)C1)C(=O)Nc1cc(/C=C\\c2cc(OC)c(OC)c(OC)c2)ccc1OC")
18.8

Kindly consider the entry below.
Ask: Which value of IC50 has been reported for COc1ccc(/C=C\c2cc(OC)c(OC)c(OC)c2)cc1NC(=O)[C@@H]1CCCN1C(=O)OC1CC(C)(C)N([O])C(C)(C)C1 in the records?
Result: 5.53

====

Give measured pIC50 for each item. Keep answers brief.
# protocol_description: Cytotoxicity against human […] cells after 24 hrs by MTT assay
# Format: functional, cell-based
# study_conditions: Homo sapiens, 24 h
Answers are plain numbers, as −log10 of the molar value.

>>> quantitative_result("COc1ccc(/C=C\\c2cc(OC)c(OC)c(OC)c2)cc1N")
7.85

Ask: Which value of pIC50 has been reported for COc1cc([C@@H]2c3cc4c(cc3[C@@H](O[C@@H]3O[C@@H]5CO[C@@H](C)O[C@H]5[C@H](O)[C@H]3O)[C@H]3COC(=O)[C@H]23)OCO4)cc(OC)c1O [ETOPOSIDE] in the records?
Result: 4.57

====

# protocol_description: Cytotoxicity against human […] cells after 24 hrs by MTT assay
# Type: functional, cell-based
Could you mark each record 1 if its IC50 falls strictly under 5 µM, and 0 if it equals or exceeds it?

Look over these answered cases.
>>> discrete_label("COc1ccc(/C=C\\c2cc(OC)c(OC)c(OC)c2)cc1NC(=O)C1CC(C)(C)N([O])C(C)(C)C1")
0
>>> discrete_label("COc1ccc(/C=C\\c2cc(OC)c(OC)c(OC)c2)cc1NC(=O)C1=CC(C)(C)N([O])C1(C)C")
0
>>> discrete_label("COc1ccc(/C=C\\c2cc(OC)c(OC)c(OC)c2)cc1NC(=O)[C@@H](NC(=O)OC1CC(C)(C)N([O])C(C)(C)C1)C(C)C")
1

Ask: Please determine if CC[C@H](C)[C@H](NC(=O)OC1CC(C)(C)N([O])C(C)(C)C1)C(=O)Nc1cc(/C=C\c2cc(OC)c(OC)c(OC)c2)ccc1OC is below 5 µM in terms of IC50.
Result: 1

Ask: Please determine if COc1ccc(/C=C\c2cc(OC)c(OC)c(OC)c2)cc1NC(=O)CNC(=O)OC1CC(C)(C)N([O])C(C)(C)C1 is below 5 µM in terms of IC50.
Result: 1

Ask: Please determine if COc1ccc(/C=C\c2cc(OC)c(OC)c(OC)c2)cc1NC(=O)C1=CC(C)(C)N([O])C(C)(C)C1 is below 5 µM in terms of IC50.
Result: 0

Ask: Please determine if COc1ccc(/C=C\c2cc(OC)c(OC)c(OC)c2)cc1NC(=O)[C@H](CCSC)NC(=O)OC1CC(C)(C)N([O])C(C)(C)C1 is below 5 µM in terms of IC50.
Result: 1

// provenance: ChEMBL document CHEMBL2321723
